- system_under_test: FGFR1 (h) (Homo sapiens, UniProt P11362)
- Sequence (P11362 22-822): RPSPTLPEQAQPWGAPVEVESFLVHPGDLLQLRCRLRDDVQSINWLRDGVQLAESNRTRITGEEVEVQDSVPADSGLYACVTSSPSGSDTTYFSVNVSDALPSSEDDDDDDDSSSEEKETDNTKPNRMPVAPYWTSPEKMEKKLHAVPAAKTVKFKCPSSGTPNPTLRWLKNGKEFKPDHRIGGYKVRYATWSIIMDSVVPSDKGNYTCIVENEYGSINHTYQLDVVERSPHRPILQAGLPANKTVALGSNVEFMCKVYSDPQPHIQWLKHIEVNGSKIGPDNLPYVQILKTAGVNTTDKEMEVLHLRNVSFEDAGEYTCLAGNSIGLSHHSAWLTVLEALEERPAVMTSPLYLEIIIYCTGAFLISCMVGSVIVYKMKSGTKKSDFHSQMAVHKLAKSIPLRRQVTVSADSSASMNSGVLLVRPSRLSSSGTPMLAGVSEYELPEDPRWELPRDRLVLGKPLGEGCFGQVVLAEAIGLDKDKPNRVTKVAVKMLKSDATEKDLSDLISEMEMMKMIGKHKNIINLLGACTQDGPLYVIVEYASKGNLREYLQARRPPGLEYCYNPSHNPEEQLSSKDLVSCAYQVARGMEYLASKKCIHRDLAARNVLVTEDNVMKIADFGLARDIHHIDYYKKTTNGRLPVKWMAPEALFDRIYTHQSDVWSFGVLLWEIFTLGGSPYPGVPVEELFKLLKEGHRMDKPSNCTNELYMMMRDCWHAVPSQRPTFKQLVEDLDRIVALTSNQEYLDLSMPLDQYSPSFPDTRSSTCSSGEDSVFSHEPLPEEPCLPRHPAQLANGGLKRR
- experiment: FGFR1 (enzymatic assay), TR-FRET
- Assay type: biochemical
- assay_context: average values if tested multiple times, read-out: FGFR 1 pIC50 (converted)
Structures can show the parent of a compound that is named as a salt.
IC50: recorded values
Lab book: enter the figure in nM, no units written.

COc1ccc(Cl)c(/N=c2\ccc3ncc(-c4cnn(C)c4)nc3n2CC2CCC(=O)N2)c1Cl (stereo not drawn) [Compound 92]
61.7
COc1cc(OC)c(F)c(N(Cc2ncc[nH]2)c2ccc3ncc(-c4cnn(C)c4)nc3n2)c1 [23-phosphate salt]
0.468
COc1cc(/N=c2\ccc3ncc(-c4cnn(C)c4)nc3n2CCCO)cc(OC)c1 [Compound 19]
0.398
COc1cc(OC)c(Cl)c(/N=c2\ccc3ncc(-c4cnn(C)c4)nc3n2CC2CCC(=O)N2)c1Cl (single isomer, unassigned) [Compound 87]
4.07
COc1ccc(Cl)c(N(Cc2ncc[nH]2)c2ccc3ncc(-c4cnn(C)c4)nc3n2)c1Cl [Compound 65]
38.9
COc1cc(OC)c(F)c(N(CC(O)COC(C)C)c2ccc3ncc(-c4cnn(C)c4)nc3n2)c1 (single isomer, unassigned) [Compound 79]
2.34

Prompt: Request the reported IC50 associated with COc1cc(OC)c(F)c(N(CC(O)COC(C)C)c2ccc3ncc(-c4cnn(C)c4)nc3n2)c1F (stereo not drawn) [Compound 61]
Response: 2.24

Prompt: // query IC50 value for entry CNCCN(c1ccc2ncc(-c3cnn(C)c3)nc2n1)c1cc(OC)cc(OC)c1F [Compound 39]
Response: 2.19

Prompt: Sample COc1cc(OC)c(F)c(N(Cc2cnccn2)c2ccc3ncc(-c4cnn(C)c4)nc3n2)c1F [Compound 10] — what was its IC50?
Response: 15.8

Prompt: Could you share which IC50 value was measured for COc1cc(OC)c(Cl)c(N(Cc2ncc[nH]2)c2ccc3ncc(-c4cnn(C)c4)nc3n2)c1 [Compound 42] ?
Response: 1.38

Prompt: Dear colleague, I am looking for the recorded IC50 of the following compound: CNCCN(c1ccc2ncc(-c3cnn(C)c3)nc2n1)c1c(Cl)c(OC)cc(OC)c1Cl [Compound 81]
Response: 5.89

Prompt: Name the recorded IC50 for COc1cc(OC)cc(N(CCO)c2ccc3ncc(-c4cnn(C)c4)nc3n2)c1 [Compound 21] .
Response: 2

Prompt: Item under review: CNCCn1/c(=N/c2c(Cl)c(OC)cc(OC)c2Cl)ccc2ncc(-c3cnn(C)c3)nc21 [Compound 82] . Reported IC50?
Response: 11.7

Prompt: Quick check: IC50 of CNCCn1/c(=N/c2c(F)ccc(OC)c2Cl)ccc2ncc(-c3cnn(C)c3)nc21 [Compound 70] ?
Response: 39.8

Prompt: Using the record for COc1cc(OC)c(F)c(N(Cc2ccnn2C)c2ccc3ncc(-c4cnn(C)c4)nc3n2)c1 [Compound 113] , report its IC50.
Response: 2

Prompt: Which IC50 reading was recorded for the compound COc1cc(OC)c(F)c(N(CCO)c2ccc3ncc(-c4cnn(C)c4)nc3n2)c1F [Compound 20] ?
Response: 25.1

Prompt: Consider the compound COc1cc(OC)c(F)c(/N=c2\ccc3ncc(-c4cnn(C)c4)nc3n2CC2CCC(=O)N2)c1F (stereo not drawn) [Compound 47] and give its measured IC50.
Response: 0.661

====

- system_under_test: FGFR1 (h) (Homo sapiens, UniProt P11362)
- experiment: FGFR1 (enzymatic assay), TR-FRET
- Assay type: biochemical
- assay_context: read-out: FGFR 1 pIC50 (converted)
// values below are reported IC50
Please respond with the number in nM and leave the unit unwritten.

COc1cc(OC)c(F)c(N(Cc2cnn(C)c2)c2ccc3ncc(-c4cnn(C)c4)nc3n2)c1 [Compound 195]
0.589
COc1cc(OC)c(F)c(N(CCNC2COC2)c2ccc3ncc(-c4cnn(C)c4)nc3n2)c1F (single isomer, unassigned) [Compound 162]
1.17
COc1cc(OC)c(F)c(/N=c2\ccc3ncc(-c4cnn(C)c4)nc3n2C)c1F (single isomer, unassigned) [Compound 255]
0.214
COc1cc(/N=c2\ccc3ncc(-c4cnn(C)c4)nc3n2CCCN2CCCC2=O)cc(OC)c1 [Compound 133]
1
COc1cc(OC)c(F)c(N(CC(=O)N2CCNCC2)c2ccc3ncc(-c4cnn(C)c4)nc3n2)c1 [Compound 262]
7.24
COc1cc(OC)cc(N(Cc2nnco2)c2ccc3ncc(-c4cnn(C)c4)nc3n2)c1 [Compound 217]
7.94
COc1cc(OC)cc(N(CC2CC(O)C(=O)N2)c2ccc3ncc(-c4cnn(C)c4)nc3n2)c1 (centres unmarked) [Compound 271]
4.57
COc1cc(OC)c(F)c(N(Cc2nncn2C)c2ccc3ncc(-c4cnn(C)c4)nc3n2)c1 [Compound 132]
5.62

Prompt: Need IC50 of COc1cc(OC)c(F)c(N(CC(C)(C)O)c2ccc3ncc(-c4cnn(C)c4)nc3n2)c1F [Compound 278] , thanks.
Response: 1.62

Prompt: Look at this molecule and give its reported IC50. COc1cc(/N=c2\ccc3ncc(-c4cnn(C)c4)nc3n2CC2CCC(=O)N2CCO)c(F)c(OC)c1 (centres unmarked) [Compound 247]
Response: 0.603

Prompt: Given the molecule COC(=O)CN(c1ccc2ncc(-c3cnn(C)c3)nc2n1)c1cc(OC)cc(OC)c1F [Compound 214] , what is its reported IC50?
Response: 2.4

Prompt: I'd like to know its IC50. The molecule in question is COc1cc(OC)cc(N(CC2CCCOC2)c2ccc3ncc(-c4cnn(C)c4)nc3n2)c1 (centres unmarked) [Compound 166]
Response: 5.62

Prompt: Give its IC50 value. Item: COCC(O)Cn1/c(=N/c2cc(OC)cc(OC)c2F)ccc2ncc(-c3cnn(C)c3)nc21 (single isomer, unassigned) [Compound 60]
Response: 0.741

Prompt: So what does the record say about IC50 for COc1cc(OC)c(F)c(N(CC2CCOC2)c2ccc3ncc(-c4cnn(C)c4)nc3n2)c1 (single isomer, unassigned) [Compound 172] ?
Response: 3.72

Prompt: What value of IC50 has been recorded for this entry: CCN(c1ccc2ncc(-c3cnn(C)c3)nc2n1)c1c(F)c(OC)cc(OC)c1F [Compound 256]
Response: 0.49

Prompt: Name the reported IC50 value associated with the molecule COc1cc(OC)c(F)c(N(Cc2nc(OC)cc(OC)n2)c2ccc3ncc(-c4cnn(C)c4)nc3n2)c1 [Compound 220]
Response: 4.17

Prompt: What measured IC50 goes with COc1cc(OC)c(F)c(N(Cc2cc(C)on2)c2ccc3ncc(-c4cnn(C)c4)nc3n2)c1 [Compound 180] ?
Response: 1.1

Prompt: For the molecule shown here, COc1cc(OC)c(F)c(N(CC2COC2)c2ccc3ncc(-c4cnn(C)c4)nc3n2)c1 [Compound 144] , give the reported IC50.
Response: 3.89
